Measured values drawn from PubChem BioAssay (Tox21) for this set.

assay: qHTS RealTime-Glo MT Cell Viability Assay in HEK293 cells - 40 hour (AID 1224874); details: RealTime-Glo luminescence; stronger effect = lower value; note: % is set by controls: 0 for no effect and ±100 for the full control effect; nearly all actives have a fitted effect of over 50% in size
Results filed as inconclusive are left out.
# max response values compiled below
Recorded endpoint: max response (%)

>  <Molecule>
CN(CCCN1c2ccccc2CCc2ccccc21)CC(=O)c1ccc(Cl)cc1

>  <Recorded endpoint>
max response

>  <Unit text>
%

>  <Readout value>
-24.7

$$$$
>  <Molecule>
COc1ccc(S(=O)(=O)Nc2nnc(CC(C)C)s2)cc1

>  <Recorded endpoint>
max response

>  <Unit text>
%

>  <Readout value>
6.93

$$$$
>  <Molecule>
CCCNC(C)(C)COC(=O)c1ccccc1

>  <Recorded endpoint>
max response

>  <Unit text>
%

>  <Readout value>
2.27

$$$$
>  <Molecule>
CCN1CC(CCN2CCOCC2)C(c2ccccc2)(c2ccccc2)C1=O (stereo unspecified)

>  <Recorded endpoint>
max response

>  <Unit text>
%

>  <Readout value>
20.2

$$$$
>  <Molecule>
Cc1cc(S(=O)(=O)O)c(N)cc1Cl

>  <Recorded endpoint>
max response

>  <Unit text>
%

>  <Readout value>
-1.1

$$$$
>  <Molecule>
CC(Oc1c(Cl)cccc1Cl)C1=NCCN1 (stereo unspecified)

>  <Recorded endpoint>
max response

>  <Unit text>
%

>  <Readout value>
-8.42

$$$$

---

test: qHTS assay to test for compound auto fluorescence at 535 nm (green) in HEK293 cell free culture (AID 720682); settings: cell-free medium, green autofluorescence 485/535 nm, stronger effect = higher value; series mostly up to 91.3 µM; note: % is set by controls: 0 for no effect and ±100 for the full control effect
Activity calls are given as the source filed them. Calls come from the whole dose curve; as a rule, active = well fitted curve in the direction sought with a large enough effect in the repeat runs; inconclusive = weak or mixed curves; inactive = flat fitted curve, though single readings scatter.

>  <Compound>
CC1(O)CSC(C)(O)CS1 (stereo not drawn)

>  <activity change>
inactive

$$$$
>  <Compound>
Oc1ccccc1F

>  <activity change>
inactive

$$$$
>  <Compound>
Cc1cc(NS(=O)(=O)c2ccc(N)cc2)nc(C)n1

>  <activity change>
inactive

$$$$
>  <Compound>
COc1ccccc1N1CCN(CCCNc2cc(=O)n(C)c(=O)n2C)CC1

>  <activity change>
inactive

$$$$
>  <Compound>
CC/C=C\CCOC(=O)C(C)C

>  <activity change>
inactive

$$$$
>  <Compound>
OCCN(CCO)c1ccccc1

>  <activity change>
inactive

$$$$
>  <Compound>
NCCC(O)(P(=O)(O)O)P(=O)(O)O

>  <activity change>
inactive

$$$$
>  <Compound>
CC1=CC(=O)CC(C)(C)C1=O

>  <activity change>
inactive

$$$$
>  <Compound>
CC(C)(CO)[C@@H](O)C(=O)NCCC(=O)O

>  <activity change>
inactive

$$$$
>  <Compound>
CCCCc1ccc2nc(NC(=O)OC)[nH]c2c1

>  <activity change>
0.0865% [at 18.6 µM] (inactive)

$$$$
>  <Compound>
CCOC(=O)C1CC(=O)C(=C(O)C2CC2)C(=O)C1 (stereo not drawn)

>  <activity change>
inactive

$$$$
>  <Compound>
Nc1ccc(Oc2ccc(N)c(N)c2)cc1

>  <activity change>
inactive

$$$$
>  <Compound>
O=C(O)[C@@H]1CSCN1

>  <activity change>
inactive

$$$$
>  <Compound>
CC(C)CC(=O)OCc1ccccc1

>  <activity change>
inactive

$$$$
>  <Compound>
CCCCCCCCCC#N

>  <activity change>
inactive

$$$$
>  <Compound>
OCC(CBr)(CBr)CBr

>  <activity change>
inactive

$$$$
>  <Compound>
CCN(CCCc1ccccc1)CCCc1ccccc1

>  <activity change>
0.0298% [at 18.6 µM] (inactive)

$$$$
>  <Compound>
CCN(CC)CCNC(=O)COc1ccc(Cl)cc1

>  <activity change>
inactive

$$$$
>  <Compound>
O=C(O)c1ccccc1Nc1cc(Cl)ccc1C(=O)O

>  <activity change>
inactive

$$$$
>  <Compound>
CC(=O)N(CC(O)CN(C(C)=O)c1c(I)c(C(=O)NCC(O)CO)c(I)c(C(=O)NCC(O)CO)c1I)c1c(I)c(C(=O)NCC(O)CO)c(I)c(C(=O)NCC(O)CO)c1I (stereo not drawn)

>  <activity change>
-0.0739% [at 18.6 µM] (inactive)

$$$$
>  <Compound>
O=C1CCCCCCCCCCC(=O)OCCO1

>  <activity change>
inactive

$$$$
>  <Compound>
CC(CNC1CCCCC1)OC(=O)c1ccccc1 (stereo not drawn)

>  <activity change>
0.0004% [at 18.6 µM] (inactive)

$$$$
>  <Compound>
COc1cc(C)ccc1C(C)C

>  <activity change>
inactive

$$$$
>  <Compound>
OC[C@H]1O[C@@H](O[C@H]2[C@H](O)[C@@H](O)[C@H](O)O[C@@H]2CO)[C@H](O)[C@@H](O)[C@H]1O

>  <activity change>
inactive

$$$$
>  <Compound>
CCOc1ccc(NC(N)=O)cc1

>  <activity change>
inactive

$$$$
>  <Compound>
CC(=O)Oc1cc(C(C)C)c(OCCN(C)C)cc1C

>  <activity change>
-0.0795% [at 18.6 µM] (inactive)

$$$$
>  <Compound>
CC(=O)OC(C)OC(C)=O

>  <activity change>
inactive

$$$$
>  <Compound>
CC(C)OC(C)C

>  <activity change>
inactive

$$$$
